Assay: Pharmacokinetics analysis in plasma of mice
Format: in vivo, BALB/c mice
Conditions: BALB/c; mouse plasma, oral 50 mg/kg; read-out: MRT(0–t)
Description: To study the relationship between pharmacokinetic characteristics and treatment efficacy in vivo, compounds were administered by oral (50 mg/kg) and intramuscular (12.5 mg/kg) methods to healthy BALB/c mice ([…]). Subgroups of 3 mice each were bled at 0.25, 0.5, 1, 2, 4, 8, 16, 24, 32, and 48 h post-administration. […] The data were analyzed by the non-compartmental model present in DAS 2.0 (Drug Analysis System, Shanghai University of T.C.M, China). […]
MRT last values for the compounds below.
experimental_endpoint: MRT last (h)

compound="OC(CN1CCCCC1)Cn1c2ccc(Cl)cc2c2cc(Cl)ccc21 (stereo not drawn)" unit_string=h measured_value=4.16
compound="OC(COc1ccc(F)cc1)CN1CCN(C(c2ccccc2)c2ccccc2)CC1 (stereo not drawn)" unit_string=h measured_value=8.08
compound="O=C(CC1CCC(c2c[nH]c3ccccc23)CC1)Nc1cc(Cl)ccc1Cl (stereo not drawn)" unit_string=h measured_value=4.34

* * *

System: Chang liver cells
Test: Cytotoxicity test, Chang liver cells (CCK-8)
Assay type: cell-based
Conditions: 72 h, CCK-8, 6.25~100 μM
Tick Condition met if Tox50 Changliver cell is 40 µM or greater. Tick Condition not met if Tox50 Changliver cell is less than 40 µM.

compound=CCN(CC(=O)Nc1cc(Cl)cc(Cl)c1)Cc1nc(=O)c2ccc(Cl)cc2[nH]1 class="Condition not met"
compound="O=C(CC1CCC(c2c[nH]c3ccccc23)CC1)Nc1cccc(Cl)c1 (centres unmarked)" class="Condition met"
compound=CN(C)[C@@H](CNC(=O)C[C@H]1Sc2ccc(Cl)cc2NC1=O)Cc1ccccc1 class="Condition met"
compound=COc1ccc([C@H]2CCCN2CC(=O)NCc2cccc(Cl)c2)c(OC)c1 class="Condition met"
compound=COc1cccc(NC(=O)CN(C)CC(=O)Nc2ccc(F)c(Cl)c2)c1 class="Condition met"

* * *

System: A172 cells
Test: Cytotoxicity test, A172 cells (CCK-8)
Format: cell-based
Conditions: 72 h, CCK-8, 3.125~50 μM
experimental_endpoint: Tox50 A172 cell (µM)

compound="Cc1ccc(C)c(NC(=O)CC2CCC(c3c[nH]c4ccccc34)CC2)c1 (stereo not drawn) [Compound S11]" subject_of_test="A172 cells" experimental_endpoint="Tox50 A172 cell" measured_value=22.72
compound="O=C(CC1CCC(c2c[nH]c3ccccc23)CC1)Nc1cc(Cl)ccc1Cl (stereo not drawn) [Compound S6]" subject_of_test="A172 cells" experimental_endpoint="Tox50 A172 cell" measured_value=11.00
compound="O=C(CC1CCC(c2c[nH]c3ccccc23)CC1)Nc1cccc(Cl)c1 (stereo not drawn) [Compound S5]" subject_of_test="A172 cells" experimental_endpoint="Tox50 A172 cell" measured_value=11.98
compound="C[C@H](C(=O)N(C)Cc1ccccc1)N(C)CC(=O)Nc1cccc2ccccc12 [Compound S19]" subject_of_test="A172 cells" experimental_endpoint="Tox50 A172 cell" measured_value=22.54
compound="CCN(CC(=O)Nc1cc(Cl)cc(Cl)c1)Cc1nc(=O)c2ccc(Cl)cc2[nH]1 [Compound S28]" subject_of_test="A172 cells" experimental_endpoint="Tox50 A172 cell" measured_value=20.99
compound="CN(CC(=O)Nc1cccc(F)c1)CC(=O)Nc1cccc2ccccc12 [Compound S16]" subject_of_test="A172 cells" experimental_endpoint="Tox50 A172 cell" measured_value=21.00

* * *

Assay: Pharmacokinetics analysis in plasma of mice
Format: in vivo, BALB/c mice
Conditions: BALB/c, im; mouse plasma, intramuscular 12.5 mg/kg
experimental_endpoint: Tmax (h)

molecule="OC(CN1CCCCC1)Cn1c2ccc(Cl)cc2c2cc(Cl)ccc21 (centres unmarked)" unit_string=h measured_value=1
molecule="OC(COc1ccc(F)cc1)CN1CCN(C(c2ccccc2)c2ccccc2)CC1 (centres unmarked)" unit_string=h measured_value=4.67

* * *

Assay: Pharmacokinetics analysis in plasma of mice
Format: in vivo, BALB/c mice
Conditions: BALB/c, mouse, plasma, po, 50 mg/kg, oral 50 mg/kg, read-out: Cmax
experimental_endpoint: Cmax (ng/mL)

molecule="OC(CN1CCCCC1)Cn1c2ccc(Cl)cc2c2cc(Cl)ccc21 (stereo not drawn) [HT3]" unit_string=ng/mL measured_value=122
molecule="O=C(CC1CCC(c2c[nH]c3ccccc23)CC1)Nc1cc(Cl)ccc1Cl (stereo not drawn) [Compound S6]" unit_string=ng/mL measured_value=1
molecule="OC(COc1ccc(F)cc1)CN1CCN(C(c2ccccc2)c2ccccc2)CC1 (stereo not drawn) [BTB4]" unit_string=ng/mL measured_value=225

* * *

Tested on: Chang liver cells
Assay: Cytotoxicity test, Chang liver cells (CCK-8)
Assay type: cell-based
Conditions: Chang liver; at 100 μM; read-out: inhibition rate, Chang liver cell
experimental_endpoint: inhibition at 100 µM (%)

compound="CN(CC(=O)Nc1cccc(F)c1)CC(=O)Nc1cccc2ccccc12 [Compound S16]" experimental_endpoint="inhibition at 100 µM" measured_value=34.6
compound="O=C(CC1CCC(c2c[nH]c3ccccc23)CC1)Nc1cc(Cl)ccc1Cl (stereo not shown) [Compound S6]" experimental_endpoint="inhibition at 100 µM" measured_value=24.6
compound="Cc1ccc(C)c(NC(=O)CC2CCC(c3c[nH]c4ccccc34)CC2)c1 (stereo not shown) [Compound S11]" experimental_endpoint="inhibition at 100 µM" measured_value=42.1
compound="C[C@H](C(=O)N(C)Cc1ccccc1)N(C)CC(=O)Nc1cccc2ccccc12 [Compound S19]" experimental_endpoint="inhibition at 100 µM" measured_value=36.5
